The reported measurements were obtained from the supplement of paper PMC9170038.

test system: MS2 coat protein; assay: apparent KD of MS2 coat protein; designed switch direction (-1 OFF switch, 1 ON switch): -1; higher = weaker reporter binding; settings: input ligand: FMN 200 uM
Kind request: treat 100 nM as inclusive, so apparent KD of MS2 coat protein at 100 nM or higher is 1 (yes), anything lower is 0 (no).

# example entries with known answers
monomerSequence: UGUCUUGCAGGAUAUACAUGAGGAUCACCCAUGUAUAUUGAUGAGGGAGAUCUACUAGGUAGAAGGGUAAGAGA [Eternabot (L2) Solution 59] (Eterna round: R97, puzzle: Exclusion 3)
targetSystem: MS2 coat protein
assignedLabel: 0 (no)

monomerSequence: UAUUUCAUCUAUGGGAGUAACAUGAGGAUCACCCAUGUAUGUCUUGUUUUUUGUUCGUCUAAGACUUUCUGAUCAGU [JR_SV3TOV1_Sub031] (Eterna round: R96, puzzle: Sensor v3, turn-off variant 1)
targetSystem: MS2 coat protein
assignedLabel: 0 (no)

monomerSequence: UCGUUCCGUGUAGGAUAUUGGCCUUCUCUGGGCCGAGAAGGACAUGAGGAUCACCCAUGUAUGUUAUUAUCACGCGUGGCGCAU [Design 84] (Eterna round: R96, puzzle: Exclusion NG 1)
targetSystem: MS2 coat protein
assignedLabel: 1 (yes)

monomerSequence: AAAUGGAACAGAGGAUAUAGGGACAUGAGGAUCACCCAUGUUUUUUUUGGUUGGGUGGGUUUGGGCUAGAAGGCUGGGAAGAAA [Kawasakiqro] (Eterna round: R96, puzzle: Exclusion NG 2)
targetSystem: MS2 coat protein
assignedLabel: 0 (no)

monomerSequence: UCGUUCCGUGUAGGAUAUUGGUCUCCCUCGGGCCGAGAAGGACAUGAGGAUCACCCAUGUAUGUUAUUAUCGCGCGUGGCGCAU [Design 90] (Eterna round: R96, puzzle: Exclusion NG 1)
targetSystem: MS2 coat protein
assignedLabel: 0 (no)

monomerSequence: AGCGCCAUCGUGAGAUGGCGUAUUACAUGAGGAUCACCCAUGUAGGAUAUCGAUUGCUUUGCAGUCGAGAAGGGCAUGUCCAAG [JL ENG3 3.80 Mod I] (Eterna round: R96, puzzle: Exclusion NG 3)
targetSystem: MS2 coat protein
assignedLabel: 0 (no)

monomerSequence: CUCACGCUCGAGGAUAUCGCACAAAACAAUCAACGAGAAGGCGAGACAUGAGGAUCACCCAUGUGUGGUCAAGA [Ceceed] (Eterna round: R97, puzzle: Exclusion 6)
targetSystem: MS2 coat protein
assignedLabel: 0 (no)

monomerSequence: AAACAGCGAGGAUAUGCAGACGCUCCUUCCUCACGUCAAGGACAUGAGGAUCACCCAUGUAGAAGGCGCACAAC [Isriteti] (Eterna round: R97, puzzle: Exclusion 2)
targetSystem: MS2 coat protein
assignedLabel: 1 (yes)

Prompt line: Check if apparent KD of MS2 coat protein >= 100 nM (inclusive). Item: AAACCUUGUGUCAGGAUAUGCAGAGGGAACGCCAGGCAGAAGGGACAUGAGGAUCACCCAUGUACAUUUUAAAC [BmEX4 B.19] (Eterna round: R97, puzzle: Brourd's mod of Exclusion 4)
Response line: 1 (yes)

Prompt line: Check if apparent KD of MS2 coat protein >= 100 nM (inclusive). Item: UUUUUAUAUGAAGGAUAUACUUAACAUGAGGAUCACCCAUGUGGUGUUGUGAGUGAGUGAGUUUAGUAGAAGGUCAAUUAUUAU [JMF's solution 15] (Eterna round: R96, puzzle: Exclusion NG 2)
Response line: 1 (yes)
